Values compiled from paper doi:10.1101/2022.02.04.479134.

# testedOn: Recombinant Human TMPRSS2 (Homo sapiens, UniProt O15393)
# Sequence (O15393 106-492): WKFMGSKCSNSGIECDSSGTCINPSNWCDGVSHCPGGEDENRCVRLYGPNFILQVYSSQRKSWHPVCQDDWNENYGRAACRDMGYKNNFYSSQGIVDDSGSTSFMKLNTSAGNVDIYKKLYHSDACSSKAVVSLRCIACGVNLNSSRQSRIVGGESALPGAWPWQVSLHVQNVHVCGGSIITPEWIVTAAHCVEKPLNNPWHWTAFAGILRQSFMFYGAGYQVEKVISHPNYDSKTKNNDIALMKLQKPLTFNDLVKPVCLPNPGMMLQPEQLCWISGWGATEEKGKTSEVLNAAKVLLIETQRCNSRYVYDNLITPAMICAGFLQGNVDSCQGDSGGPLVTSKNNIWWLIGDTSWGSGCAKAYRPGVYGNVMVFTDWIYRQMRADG
# testName: biochemical
# conditionsUsed: biochemical assay not given; matches mass spectrometry values; read-out: IC50 inhibition of TMPRSS2
Measured IC50, listed per entry.
quantity: IC50

[[record]]
molecule = "N=C(N)c1cccc(CC(NS(=O)(=O)c2cccc(-c3ccc(Cl)cc3Cl)c2)C(=O)N2CCC(CCN)CC2)c1 (centres unmarked)"
quantity = "IC50"
recordedmeasurement = "~300 nM"

[[record]]
molecule = "N=C(N)c1cccc(CC(NS(=O)(=O)c2cccc(-c3ccc(Cl)cc3Cl)c2)C(=O)N2CCC(NC(=O)NC3CCCCC3)CC2)c1 (centres unmarked)"
quantity = "IC50"
recordedmeasurement = "~300 nM"


====

Measured Calu-3 (cytotoxicity) Max Response, listed per entry.
# Test system: Calu-3 cells
# conditionsUsed: ATP content, no PP
Where a name gives a salt, the structure may show the parent alone.
quantity: Calu-3 (cytotoxicity) Max Response (%)

[[record]]
compound = "CCOC(=O)c1cc(=O)c2c(OCC(COc3cccc4oc(C(=O)OCC)cc(=O)c34)OC(=O)[C@@H](N)CCCCN)cccc2o1 [Cromoglicate lisetil]"
recordedmeasurement = 0

[[record]]
compound = "COC(=O)N[C@H](C(=O)N1CCC[C@H]1c1nc(-c2ccc(-c3ccc(-c4c[nH]c([C@@H]5CCCN5C(=O)[C@@H](NC(=O)OC)C(C)C)n4)cc3)cc2)c[nH]1)C(C)C [Daclatasvir dihydrochloride]"
recordedmeasurement = 0

[[record]]
compound = "N=C(N)NC(=O)c1nc(Cl)c(N)nc1N [Amiloride HCl]"
recordedmeasurement = 0

[[record]]
compound = "N=C(N)c1ccc2cc(OC(=O)c3ccc(N=C(N)N)cc3)ccc2c1 [Nafamostat mesilate]"
recordedmeasurement = 0

[[record]]
compound = "CC(C)C[C@H](NC(=O)[C@H](Cc1ccccc1)NC(=O)c1cnccn1)B(O)O [Bortezomib]"
recordedmeasurement = -97


====

# testedOn: Recombinant Human TMPRSS2 (Homo sapiens)
# testName: biochemical
# Type: biochemical
# conditionsUsed: 10 μM Boc-QAR-AMC, 0.175 μM TMPRSS2, 1 h RT, 11-point dose-response in triplicate; read-out: Biochemical (fluorogenic) AC50
Where a name gives a salt, the structure may show the parent alone.
Lab note: class by AC50, see label 0 (below 2 µM), label 1 (2 µM to below 10 µM), label 2 (10 µM or more)

[[record]]
compound = "COC[C@H]1C[C@@H](c2ncc(-c3ccc4c(c3)COc3cc5c(ccc6nc([C@@H]7CC[C@H](C)N7C(=O)[C@@H](NC(=O)OC)C(C)C)[nH]c65)cc3-4)[nH]2)N(C(=O)[C@H](NC(=O)OC)c2ccccc2)C1"
testedon = "Recombinant Human TMPRSS2 (Homo sapiens)"
assignedlabel = "label 2"

[[record]]
compound = "N=C(N)c1cccc(CC(NS(=O)(=O)c2cccc(-c3ccc(Cl)cc3Cl)c2)C(=O)N2CCC(CCN)CC2)c1 (stereo not drawn)"
testedon = "Recombinant Human TMPRSS2 (Homo sapiens)"
assignedlabel = "label 0"

[[record]]
compound = "NC[C@H]1CC[C@H](C(=O)Oc2ccc(CCC(=O)O)cc2)CC1 [Cetraxate HCl]"
testedon = "Recombinant Human TMPRSS2 (Homo sapiens)"
assignedlabel = "label 1"

[[record]]
compound = "O=c1ccn([C@H]2C[C@H](O)[C@@H](CO)O2)c(=O)[nH]1"
testedon = "Recombinant Human TMPRSS2 (Homo sapiens)"
assignedlabel = "label 2"

[[record]]
compound = "CC(C)C[C@H](NC(=O)[C@H](Cc1ccccc1)NC(=O)c1cnccn1)B(O)O"
testedon = "Recombinant Human TMPRSS2 (Homo sapiens)"
assignedlabel = "label 2"

[[record]]
compound = "N=C(N)c1cccc(CC(NS(=O)(=O)c2cccc(-c3ccc(Cl)cc3Cl)c2)C(=O)N2CCC(NC(=O)NC3CCCCC3)CC2)c1 (stereo not drawn)"
testedon = "Recombinant Human TMPRSS2 (Homo sapiens)"
assignedlabel = "label 0"

[[record]]
compound = "N=C(N)NC(=O)c1nc(Cl)c(N)nc1N [Amiloride HCl]"
testedon = "Recombinant Human TMPRSS2 (Homo sapiens)"
assignedlabel = "label 1"

[[record]]
compound = "N=C(N)c1ccc(OCCCCCOc2ccc(C(=N)N)cc2)cc1 [Pentamidine isethionate]"
testedon = "Recombinant Human TMPRSS2 (Homo sapiens)"
assignedlabel = "label 1"

[[record]]
compound = "O=c1ccc2ccc(O)cc2o1 [7-Hydroxycoumarin]"
testedon = "Recombinant Human TMPRSS2 (Homo sapiens)"
assignedlabel = "label 1"

[[record]]
compound = "CC(=O)N[C@@H](CC(C)C)C(=O)N[C@@H](CC(C)C)C(=O)N[C@H](C=O)CCCNC(=N)N"
testedon = "Recombinant Human TMPRSS2 (Homo sapiens)"
assignedlabel = "label 0"

[[record]]
compound = "COC(=O)N[C@H](C(=O)N1CCC[C@H]1c1nc(-c2ccc(-c3ccc(-c4c[nH]c([C@@H]5CCCN5C(=O)[C@@H](NC(=O)OC)C(C)C)n4)cc3)cc2)c[nH]1)C(C)C [Daclatasvir dihydrochloride]"
testedon = "Recombinant Human TMPRSS2 (Homo sapiens)"
assignedlabel = "label 2"

[[record]]
compound = "CN(C(=O)C(Cl)Cl)c1ccc(OC(=O)c2ccco2)cc1 [Diloxanide furoate]"
testedon = "Recombinant Human TMPRSS2 (Homo sapiens)"
assignedlabel = "label 2"

[[record]]
compound = "Nc1nc2ncc(CNc3ccc(C(=O)N[C@@H](CCC(=O)O)C(=O)O)cc3)nc2c(=O)[nH]1"
testedon = "Recombinant Human TMPRSS2 (Homo sapiens)"
assignedlabel = "label 2"

[[record]]
compound = "N=C(N)c1ccc2nc(-c3cc(CC(=O)N[C@@H](CC(=O)O)C(=O)O)cc(-c4cc(S(N)(=O)=O)ccc4O)c3O)[nH]c2c1"
testedon = "Recombinant Human TMPRSS2 (Homo sapiens)"
assignedlabel = "label 0"

[[record]]
compound = "CCOC(=O)c1cc(=O)c2c(OCC(COc3cccc4oc(C(=O)OCC)cc(=O)c34)OC(=O)[C@@H](N)CCCCN)cccc2o1 [Cromoglicate lisetil]"
testedon = "Recombinant Human TMPRSS2 (Homo sapiens)"
assignedlabel = "label 2"

